system: WM115 (Melanoma) human cancer cell line; conditions: WM115, 10 μM, three days
Square brackets hold non-standard residues; d marks the D form. Peptide text beside a SMILES is read from it. NMePhe(4-Br) = CN[C@@H](Cc1ccc(Br)cc1)C(=O)O; Phe(4-Br) = N[C@@H](Cc1ccc(Br)cc1)C(=O)O; Hica(2S) = CC(C)C[C@H](O)C(=O)O; NMeL = CN[C@@H](CC(C)C)C(=O)O; NMeV = CN[C@H](C(=O)O)C(C)C
Output label 1 for Fold Induction Over DMSO control not less than 0.6; output label 0 otherwise.

In: Answer whether Fold Induction Over DMSO control of CC(C)C[C@@H]1NC(=O)[C@H](Cc2ccc(Br)cc2)NC(=O)[C@H](CC(C)C)NC(=O)[C@H](C(C)C)N(C)C(=O)[C@H](CC(C)C)NC1=O [Compound 1g] (cyclo([Phe(4-Br)]LL[NMeV]L)) is greater than or equal to 0.6.
Out: label 1

In: Field entry: CC(C)C[C@@H]1NC(=O)[C@H](Cc2ccc(Br)cc2)NC(=O)[C@H](CC(C)C)NC(=O)[C@H](C(C)C)NC(=O)[C@H](CC(C)C)NC1=O [Compound 1a] (cyclo([Phe(4-Br)]LLVL))
Out: label 1

In: Field entry: CC(C)C[C@@H]1NC(=O)[C@H](Cc2ccccc2)NC(=O)[C@H](CC(C)C)N(C)C(=O)[C@H](C(C)C)NC(=O)[C@H](CC(C)C)NC1=O [Compound 1h] (cyclo(FLLV[NMeL]))
Out: label 0

In: Field entry: CC(C)C[C@@H]1NC(=O)[C@H](Cc2ccccc2)NC(=O)[C@H](CC(C)C)NC(=O)[C@H](C(C)C)NC(=O)[C@H](CC(C)C)NC1=O [Compound 1, sansalvamide A peptide] (cyclo(FLLVL))
Out: label 0

In: Field entry: CC(C)C[C@@H]1NC(=O)[C@H](CC(C)C)NC(=O)[C@H](Cc2ccc(Br)cc2)N(C)C(=O)[C@H](CC(C)C)NC(=O)[C@H](C(C)C)NC1=O [Compound 1k] (cyclo([NMePhe(4-Br)]LLVL))
Out: label 0

In: Field entry: CC(C)C[C@@H]1NC(=O)[C@H](C(C)C)NC(=O)[C@H](CC(C)C)N(C)C(=O)[C@H](CC(C)C)NC(=O)[C@H](Cc2ccc(Br)cc2)NC1=O [Compound 1e] (cyclo([Phe(4-Br)]L[NMeL]VL))
Out: label 1

In: Field entry: CC(C)C[C@@H]1NC(=O)[C@H](C(C)C)NC(=O)[C@H](CC(C)C)N(C)C(=O)[C@H](CC(C)C)NC(=O)[C@H](Cc2ccccc2)NC1=O [Compound 1d] (cyclo(FL[NMeL]VL))
Out: label 1

In: Field entry: CC(C)C[C@@H]1NC(=O)[C@H](C(C)C)NC(=O)[C@H](CC(C)C)OC(=O)[C@H](CC(C)C)NC(=O)[C@H](Cc2ccccc2)NC1=O [Sansalvamide A, reference compound] (cyclo(FL[Hica(2S)]VL))
Out: label 0

* * *

tested on: PC-3 (Prostate) human cancer cell line; settings: PC-3, 10 μM, three days
Square brackets hold non-standard residues; d marks the D form. Peptide text beside a SMILES is read from it. Phe(4-Br) = N[C@@H](Cc1ccc(Br)cc1)C(=O)O; NMeV = CN[C@H](C(=O)O)C(C)C
test.readout: Fold Induction Over DMSO control

Example results:
CC(C)C[C@@H]1NC(=O)[C@H](Cc2ccc(Br)cc2)NC(=O)[C@H](CC(C)C)NC(=O)[C@H](C(C)C)N(C)C(=O)[C@H](CC(C)C)NC1=O [Compound 1g] (cyclo([Phe(4-Br)]LL[NMeV]L))    0.67
CC(C)C[C@@H]1NC(=O)[C@H](Cc2ccccc2)NC(=O)[C@H](CC(C)C)NC(=O)[C@H](C(C)C)NC(=O)[C@H](CC(C)C)NC1=O [Compound 1, sansalvamide A peptide] (cyclo(FLLVL))    0.90

In: // query Fold Induction Over DMSO control value for entry CC(C)C[C@@H]1NC(=O)[C@H](Cc2ccccc2)NC(=O)[C@H](CC(C)C)NC(=O)[C@H](C(C)C)N(C)C(=O)[C@H](CC(C)C)NC1=O [Compound 1f] (cyclo(FLL[NMeV]L))
Out: 0.74

* * *

system: WM115 (Melanoma) human cancer cell line; conditions: WM115, 1 μM, three days
Square brackets hold non-standard residues; d marks the D form. Peptide text beside a SMILES is read from it. NMePhe(4-Br) = CN[C@@H](Cc1ccc(Br)cc1)C(=O)O; Phe(4-Br) = N[C@@H](Cc1ccc(Br)cc1)C(=O)O; NMeL = CN[C@@H](CC(C)C)C(=O)O
For each record, check the reported Fold Induction Over DMSO control: if it is below 1 write condition met, else write condition not met.

CC(C)C[C@@H]1NC(=O)[C@H](C(C)C)NC(=O)[C@H](CC(C)C)N(C)C(=O)[C@H](CC(C)C)NC(=O)[C@H](Cc2ccccc2)NC1=O [Compound 1d] (cyclo(FL[NMeL]VL))    condition met

In: Regarding CC(C)C[C@@H]1NC(=O)[C@H](C(C)C)NC(=O)[C@H](CC(C)C)NC(=O)[C@H](CC(C)C)N(C)C(=O)[C@H](Cc2ccc(Br)cc2)NC1=O [Compound 1c] (cyclo([Phe(4-Br)][NMeL]LVL)) , kindly confirm whether its Fold Induction Over DMSO control is beneath 1.
Out: condition not met

In: Field entry: CC(C)C[C@@H]1NC(=O)[C@H](CC(C)C)NC(=O)[C@H](Cc2ccc(Br)cc2)N(C)C(=O)[C@H](CC(C)C)NC(=O)[C@H](C(C)C)NC1=O [Compound 1k] (cyclo([NMePhe(4-Br)]LLVL))
Out: condition not met

In: Field entry: CC(C)C[C@@H]1NC(=O)[C@H](Cc2ccccc2)NC(=O)[C@H](CC(C)C)NC(=O)[C@H](C(C)C)NC(=O)[C@H](CC(C)C)NC1=O [Compound 1, sansalvamide A peptide] (cyclo(FLLVL))
Out: condition met

In: Field entry: CC(C)C[C@@H]1NC(=O)[C@H](C(C)C)NC(=O)[C@H](CC(C)C)N(C)C(=O)[C@H](CC(C)C)NC(=O)[C@H](Cc2ccc(Br)cc2)NC1=O [Compound 1e] (cyclo([Phe(4-Br)]L[NMeL]VL))
Out: condition met

In: Field entry: CC(C)C[C@@H]1NC(=O)[C@H](Cc2ccc(Br)cc2)NC(=O)[C@H](CC(C)C)N(C)C(=O)[C@H](C(C)C)NC(=O)[C@H](CC(C)C)NC1=O [Compound 1i] (cyclo([Phe(4-Br)]LLV[NMeL]))
Out: condition not met

* * *

system: PC-3 (Prostate) human cancer cell line; settings: PC-3, 1 μM, three days
Square brackets hold non-standard residues; d marks the D form. Peptide text beside a SMILES is read from it. Phe(4-Br) = N[C@@H](Cc1ccc(Br)cc1)C(=O)O; NMeF = CN[C@@H](Cc1ccccc1)C(=O)O; Hica(2S) = CC(C)C[C@H](O)C(=O)O; NMeL = CN[C@@H](CC(C)C)C(=O)O; NMeV = CN[C@H](C(=O)O)C(C)C; Aib = CC(C)(N)C(=O)O
test.readout: Fold Induction Over DMSO control
Lab note: jot down the number only; don't add units.

Example results:
CC(C)C[C@@H]1NC(=O)[C@H](Cc2ccc(Br)cc2)NC(=O)[C@H](CC(C)C)NC(=O)[C@H](C(C)C)N(C)C(=O)[C@H](CC(C)C)NC1=O [Compound 1g] (cyclo([Phe(4-Br)]LL[NMeV]L))    0.74
CC(C)C[C@@H]1NC(=O)[C@H](CC(C)C)NC(=O)[C@H](Cc2ccccc2)N(C)C(=O)[C@H](CC(C)C)NC(=O)[C@H](C(C)C)NC1=O [Compound 1j] (cyclo([NMeF]LLVL))    0.86

In: What value of Fold Induction Over DMSO control on PC-3 (Prostate) human cancer cell line does CC(C)C[C@@H]1NC(=O)[C@H](Cc2ccccc2)NC(=O)[C@H](Cc2ccccc2)N(C)C(=O)[C@H](Cc2ccccc2)NC(=O)C(C)(C)NC(=O)[C@H](CC(C)C)N(C)C(=O)[C@@H]2CCCN2C1=O [Scytalidamide A, reference compound] (cyclo(F[NMeF]FLP[NMeL][Aib])) have?
Out: 0.63

In: Field entry: CC(C)C[C@@H]1NC(=O)[C@H](C(C)C)NC(=O)[C@H](CC(C)C)OC(=O)[C@H](CC(C)C)NC(=O)[C@H](Cc2ccccc2)NC1=O [Sansalvamide A, reference compound] (cyclo(FL[Hica(2S)]VL))
Out: 0.95

* * *

test system: WM115 (Melanoma) human cancer cell line; conditions: WM115, 10 μM, three days
Square brackets hold non-standard residues; d marks the D form. Peptide text beside a SMILES is read from it. NMeF = CN[C@@H](Cc1ccccc1)C(=O)O; NMeL = CN[C@@H](CC(C)C)C(=O)O; NMeV = CN[C@H](C(=O)O)C(C)C; Aib = CC(C)(N)C(=O)O
Reported Fold Induction Over DMSO control values follow for various compounds

Example results:
CC(C)C[C@@H]1NC(=O)[C@H](C(C)C)NC(=O)[C@H](CC(C)C)NC(=O)[C@H](CC(C)C)N(C)C(=O)[C@H](Cc2ccccc2)NC1=O [Compound 1b] (cyclo(F[NMeL]LVL))    3.02
CC(C)C[C@@H]1NC(=O)[C@H](Cc2ccccc2)NC(=O)[C@H](Cc2ccccc2)N(C)C(=O)[C@H](Cc2ccccc2)NC(=O)C(C)(C)NC(=O)[C@H](CC(C)C)N(C)C(=O)[C@@H]2CCCN2C1=O [Scytalidamide A, reference compound] (cyclo(F[NMeF]FLP[NMeL][Aib]))    0.07

In: // query Fold Induction Over DMSO control value for entry CC(C)C[C@@H]1NC(=O)[C@H](Cc2ccccc2)NC(=O)[C@H](CC(C)C)NC(=O)[C@H](C(C)C)N(C)C(=O)[C@H](CC(C)C)NC1=O [Compound 1f] (cyclo(FLL[NMeV]L))
Out: 1.06
